experiment: DRUGMATRIX: Calcium Channel Type L, Dihydropyridine radioligand binding (ligand: [3H] Nitrendipine); assay type: cell membranes, Rattus norvegicus, Wistar, Cerebral cortex, Membrane; conditions: Not Active = under 50% inhibition at 10 µM; read-out: Ki
pKi: −log10 of the molar value.
pKi listing for selected compounds.
measured.endpoint: pKi

| compound | readout.value |
| --- | --- |
| COCCOC(=O)C1=C(C)NC(C)=C(C(=O)OC(C)C)C1c1cccc([N+](=O)[O-])c1 (stereo unspecified) [NIMODIPINE] | 9.81 |
| COC(=O)C1=C(C)NC(C)=C(C(=O)OCC(C)C)C1c1ccccc1[N+](=O)[O-] (stereo unspecified) [NISOLDIPINE] | 9.32 |
| CCOC(=O)C1=C(C)NC(C)=C(C(=O)OC)C1c1cccc([N+](=O)[O-])c1 (stereo unspecified) [NITRENDIPINE] | 9.61 |
| CN(C)c1ccc(C(=C2C=CC(=[N+](C)C)C=C2)c2ccc(N(C)C)cc2)cc1.[Cl-] [GENTIAN VIOLET] | 5.86 |
| CC(C)(C)c1ccc(C(O)CCCN2CCC(C(O)(c3ccccc3)c3ccccc3)CC2)cc1 (stereo unspecified) [TERFENADINE] | 6.30 |
| O=C(c1ccc(OCCN2CCCCC2)cc1)c1c(-c2ccc(O)cc2)sc2cc(O)ccc12 [RALOXIFENE] | 6.60 |

---

biological target: UniProt:P28335; assay: DRUGMATRIX: Serotonin (5-Hydroxytryptamine) 5-HT2C radioligand binding (ligand: [3H] Mesulergine); assay type: cell membranes, CHO-K1, Membrane; settings: cho-k1; Not Active = under 50% inhibition at 10 µM
Sequence (P28335 whole entry): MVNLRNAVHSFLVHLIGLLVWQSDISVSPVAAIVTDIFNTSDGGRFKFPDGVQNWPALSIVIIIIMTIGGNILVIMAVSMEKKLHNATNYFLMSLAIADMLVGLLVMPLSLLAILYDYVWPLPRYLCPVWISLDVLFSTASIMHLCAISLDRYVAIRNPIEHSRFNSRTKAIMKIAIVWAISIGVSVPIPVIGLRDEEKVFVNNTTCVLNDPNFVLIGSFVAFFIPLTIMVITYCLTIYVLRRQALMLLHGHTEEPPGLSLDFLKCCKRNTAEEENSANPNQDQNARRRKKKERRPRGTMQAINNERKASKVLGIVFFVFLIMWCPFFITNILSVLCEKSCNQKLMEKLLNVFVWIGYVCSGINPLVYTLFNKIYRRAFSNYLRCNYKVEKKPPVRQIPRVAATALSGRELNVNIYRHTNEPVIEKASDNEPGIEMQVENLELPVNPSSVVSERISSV

| compound | IC50 |
| --- | --- |
| C#C[C@]1(O)CC[C@H]2[C@@H]3CCc4cc(OC)ccc4[C@H]3CC[C@@]21C [MESTRANOL] | Not Active |
| CC[C@]1(O)C[C@@H]2CN(CCc3c([nH]c4ccccc34)[C@@](C(=O)OC)(c3cc4c(cc3OC)N(C)[C@H]3[C@@](O)(C(=O)OC)[C@H](OC(C)=O)[C@]5(CC)C=CCN6CC[C@]43[C@@H]65)C2)C1 [VINBLASTINE] | Not Active |
| CC(C)CC(N(C)C)C1(c2ccc(Cl)cc2)CCC1 (configuration not stated) [SIBUTRAMINE] | Not Active |
| Oc1ccc(OCc2ccccc2)cc1 [MONOBENZONE] | Not Active |
| C[C@@H]1C[C@@H]([C@H](O)CC2CC(=O)NC(=O)C2)C(=O)[C@@H](C)C1 [CYCLOHEXIMIDE] | Not Active |
| C[C@]1(Cn2ccnn2)[C@H](C(=O)O)N2C(=O)C[C@H]2S1(=O)=O [TAZOBACTAM] | Not Active |
| C=C1CC[C@H](O)C/C1=C/C=C1\CCC[C@]2(C)[C@@H]([C@H](C)CCCC(C)C)CC[C@@H]12 [CHOLECALCIFEROL] | Not Active |

---

pKi listing for selected compounds.
experiment: DRUGMATRIX: Calcium Channel Type L, Benzothiazepine radioligand binding (ligand: [3H] Diltiazem); format: cell membranes, Rattus norvegicus, Wistar, Brain, Membrane; details: Not Active = under 50% inhibition at 10 µM; read-out: Ki
pKi: −log10 of the molar value.

| compound | pKi |
| --- | --- |
| CCOC(=O)C1=C(C)NC(C)=C(C(=O)OC)C1c1cccc([N+](=O)[O-])c1 (stereo not drawn) | 8.86 |
| COC(=O)C1=C(C)NC(C)=C(C(=O)OCC(C)C)C1c1ccccc1[N+](=O)[O-] (stereo not drawn) | 8.66 |
| CC(=O)N1CCN(c2ccc(OCC3COC(Cn4ccnc4)(c4ccc(Cl)cc4Cl)O3)cc2)CC1 (stereo not drawn) | 4.55 |
| CC(C)CC(N(C)C)C1(c2ccc(Cl)cc2)CCC1 (stereo not drawn) | 6.14 |
| O=C(c1ccc(OCCN2CCCCC2)cc1)c1c(-c2ccc(O)cc2)sc2cc(O)ccc12 | 6.43 |
| CC(C)(C)c1ccc(C(O)CCCN2CCC(C(O)(c3ccccc3)c3ccccc3)CC2)cc1 (stereo not drawn) | 6.70 |
| COCCOC(=O)C1=C(C)NC(C)=C(C(=O)OC(C)C)C1c1cccc([N+](=O)[O-])c1 (stereo not drawn) | 8.73 |
| OC(CCN1CCCCC1)(c1ccccc1)C1CCCCC1 (stereo not drawn) | 5.37 |
